The reported numbers originate from PubChem BioAssay AID1996.

Settings: buffer; pH 7.4; 200.0 µM
Give measured solubility kinetic for each item. Keep answers brief.
One number for each entry, in µg/mL.

Examples with their reported solubility kinetic follow.
molecule="CC(Nc1nc(=S)nc(Nc2ccc(F)cc2)[nH]1)c1ccccc1 (stereo not drawn)" test_value=0.6
molecule=Cc1ccc(-c2nc(-c3cccnc3)sc2CC(=O)O)cc1 test_value=42.4
molecule=Cc1ccc(Cl)cc1N1CCN(C(=S)NCc2ccco2)CC1 test_value=1

Give solubility kinetic for each of the items listed below.
1. N#Cc1nc(-c2ccc(F)cc2)oc1NCCCn1ccnc1
2. CC(=O)Nc1ccc(Sc2ccccc2C(=O)O)c(C(=O)O)c1
3. COc1ccccc1NC(=O)Nc1ccccc1C#N
4. CCn1c(/N=C/c2ccccc2O)nc2ccccc21
5. Cc1oc(S(=O)(=O)N2CCCCC2)cc1NC(=O)Nc1ccc(F)cc1
6. CCc1ccc(NC(=O)CCc2nc3ccccc3[nH]2)cc1
7. O=c1c2ccccc2nc(/C=C/c2cc(Br)ccc2O)n1CCO
8. O=C(Nc1cc(Cl)ccc1Cl)c1cc(-c2ccco2)on1

stdout:
2.5
42.3
24.8
36.9
5.5
0.7
6.1
0.7

* * *

Conditions: buffer; pH 7.4; 200.0 µM
Tick T if solubility kinetic is 4 µg/mL or greater. Tick F if solubility kinetic is less than 4 µg/mL.

compound=Brc1cnc2nc[nH]c2c1 category_label=T
compound=COc1ccc(C(=O)Cn2cc[n+](C)c2)cc1.[Br-] category_label=T
compound=Cc1ccc(C(=O)N2CCN(CCNC(=O)C(=O)Nc3ccc(Cl)cc3)CC2)cc1 category_label=F
compound=Cc1ccc(-c2noc(CN(C)C(=O)c3ccoc3C)n2)cc1 category_label=T
compound="O=C1CCCCC1Sc1ccc(Cl)cc1[N+](=O)[O-] (stereo not given)" category_label=T

stdin: Entry CSc1ccc(C2CC(=O)Nc3c2c(=O)n(C)c(=O)n3C)cc1 (stereo not given) : is its solubility kinetic no less than 4 µg/mL?
stdout: T

stdin: Is it the case that N#Cc1ccc(C(=O)OCC(=O)N2CCOCC2)cc1 has solubility kinetic reaching or exceeding 4 µg/mL?
stdout: T

stdin: Tell me whether solubility kinetic is at least 4 µg/mL here: O=C(COc1ccccc1Cl)N1CCc2ccccc2C1
stdout: T

stdin: Identify whether the reported solubility kinetic of the following compound is 4 µg/mL or greater: O=C(O)Cc1csc(-c2cccc(F)c2)n1
stdout: T

stdin: Given the entry CC(=O)N1CC(=O)Nc2ccc(Cl)cc2C1c1ccccc1 (stereo not given) , answer whether its solubility kinetic meets or surpasses 4 µg/mL.
stdout: T

stdin: Is the recorded value of solubility kinetic equal to or greater than 4 µg/mL for this compound? O=S(=O)(c1ccc(-c2ccccn2)s1)N1CCC2(CC1)OCCO2
stdout: F

stdin: Hi, just wondering whether COc1ccc(Cl)cc1NC(=O)CNc1ccccc1N1CCOCC1 shows solubility kinetic of 4 µg/mL or higher.
stdout: F

stdin: Evaluate CCCC1(c2ccccc2)NC(=O)N(CC(=O)Nc2ccc3c(c2)OCCO3)C1=O (stereo not given) : solubility kinetic at minimum 4 µg/mL?
stdout: T

stdin: Threshold query (solubility kinetic >= 4 µg/mL) on CCC(=O)NCCNc1nc2cc(C)cc(C)c2cc1C#N
stdout: F

stdin: hey, is solubility kinetic for this one >= 4 µg/mL? CCC(NS(=O)(=O)c1cccs1)c1ccc(C)cc1 (stereo not given)
stdout: T

stdin: Hello, I need to know if COc1cccc(C2CC(=O)Nc3cc(OC)c(OC)cc32)c1 (stereo not given) has measured solubility kinetic not below 4 µg/mL. Thanks!
stdout: T

stdin: Is the recorded value of solubility kinetic equal to or greater than 4 µg/mL for this compound? O=C(NC(=S)Nc1ccccc1CO)C1CCCCC1
stdout: T

* * *

Settings: buffer; pH 7.4; 200.0 µM
Measurement name: log10 solubility kinetic (log10 of the value in µg/mL)
// stored as log10 of solubility kinetic expressed in µg/mL

Consider the following illustrative entries.
compound=O=C(CSCc1ccco1)N1CCc2ccccc21 test_value=1.57
compound=Cc1ccc(O)c(C(=O)c2cnc(/N=C(\N)N(C)C)nc2)c1 test_value=1.61
compound=Cc1cccc(OCCc2c(C)[nH]c(=S)[nH]c2=O)c1 test_value=0.51
compound=COc1ccccc1/C=C/C(=O)OCC(=O)NCc1ccc2c(c1)OCO2 test_value=0.80
compound=Cc1ccc(-c2nc(N)sc2-c2ccc(C)cc2)cc1 test_value=-0.30
compound=CC(=O)Nc1ccc2c(c1)nc(CCNC(=O)c1ccco1)n2C test_value=1.68

Below: the item to evaluate.
stdin: // query log10 solubility kinetic value for entry CC(OC(=O)c1cccnc1)C(=O)Nc1ccc2c(c1)OCO2 (configuration not stated)
stdout: 1.64

* * *

Provide the reported solubility kinetic of each item.
Conditions: buffer; pH 7.4; 200.0 µM

compound_structure_string=CC(C)CN(C(=O)CN(C)CC(=O)Nc1ccccc1C#N)c1c(N)n(CC(C)C)c(=O)[nH]c1=O measurement_name="solubility kinetic" test_value="> 72.5 µg/mL"

For each of the molecules below, note its solubility kinetic.
1. Cc1nc2ccccc2c(=O)n1-c1ccc(Cl)c(Cl)c1
2. c1ccc2nc(SCc3cn4ccccc4n3)cnc2c1

stdout:
44 µg/mL
> 43.9 µg/mL

* * *

Conditions: buffer; pH 7.4; 200.0 µM
What solubility kinetic was measured for each of the following?

compound="Cc1cccc(NC(=O)C(Cc2ccccc2)n2cccc2)c1 (stereo unspecified)" test_value="11.6 µg/mL"
compound=COC(=O)C1CCN(C(=O)c2ccc(OC)c(S(=O)(=O)N3CCCc4ccccc43)c2)CC1 test_value="> 70.9 µg/mL"
compound=O=C(Nc1ccc2c(c1)OCO2)c1ccc(CO)cc1 test_value="> 40.7 µg/mL"

For each of the compounds below, note its solubility kinetic.
1. COc1ccccc1-n1c(/C=C/c2ccccn2)nc2ccccc2c1=O
2. COc1ccc(C(=O)NCCCc2ccccc2)cc1OC

stdout:
1. 7.3 µg/mL
2. > 44.9 µg/mL

* * *

I'd be grateful if you could share measured solubility kinetic for these entries.
Details: buffer; pH 7.4; 200.0 µM
Answers are plain numbers, in µg/mL.

Use the examples below as a reference point.
molecule=O=C([O-])c1cc(-c2cccnc2)nc2ccccc12.[K+] test_value=8.7
molecule=CC(C)(C)c1ccc(OCCCN2CCCC2)cc1 test_value=28.6
molecule="CC(C)C(NC(=O)c1ccc(Cl)c([N+](=O)[O-])c1)C(=O)NCc1ccccn1 (centres undefined)" test_value=40.6
molecule=Cc1cc(C)cc(N(CCC#N)C(=O)CSc2nc3ccccc3c(=O)[nH]2)c1 test_value=28.8
molecule="CCC(=O)NC1(C(F)(F)F)C(=O)Nc2c1c(=O)[nH]c(=O)n2CC(C)C (centres undefined)" test_value=54
molecule=COc1cc(CN2CCNCC2)cc(OC)c1OC.Cl test_value=23.1
molecule=O=c1[nH]c(=S)n(C2CC2)c(O)c1C=Nc1ccc2c(c1)OCO2 test_value=1.3
molecule="OCCC1CN(Cc2ccon2)CCN1Cc1ccc(F)c(F)c1 (centres undefined)" test_value=40.7

Give one value of solubility kinetic per listed molecule.
1. CC(OC(=O)C1CCCC1)C(=O)Nc1ncc(Cl)cc1Cl (centres undefined)
2. CC(=O)/C(=C(/O)c1ccccc1)c1nc2ccccc2[nH]1
3. O=C(COC(=O)c1cccc(Br)c1)NCc1ccco1
4. COc1ccccc1CNC(=O)CCCNC(=O)c1ccc(Cl)cc1

stdout:
49.1
1.4
19
20.6

stdin: Field request: solubility kinetic | item: Cc1ccc(S(=O)(=O)CC(=O)N2CCN(c3ccc([N+](=O)[O-])cc3)CC2)cc1
stdout: 24.7

* * *

Kindly supply the reported solubility kinetic values for the records listed here.
Settings: buffer; pH 7.4; 200.0 µM

Solved entries:
compound=CCOC(=O)c1csc(NC(C)=O)n1 test_value="> 32.1 µg/mL"
compound=CCOC(=O)C1CCN(C(=O)c2cc3ccccc3oc2=O)CC1 test_value="48.4 µg/mL"

Dear colleague, could you please provide solubility kinetic for the compounds listed below?
1. COc1cccc(N2CCN(c3nc(C)c(C)c(=O)[nH]3)CC2)c1
2. COc1ccc(/C=C/C(=O)NC(CCSC)C(=O)O)cc1 (stereo not given)
3. O=c1c2ccccc2nc2ccccn12
4. CCOc1ccc(S(=O)(=O)N2CCN(C(=O)C3CC3C)CC2)cc1 (stereo not given)
5. COc1ccccc1C(=O)OCC(=O)NC(C)CCc1ccccc1 (stereo not given)
6. Cc1nc(-c2ccccc2)sc1C(=O)/C=C/N(C)C
7. CCOC(=O)N1CCN(CCc2ccccc2)CC1
8. CCC(C)NCCCOc1ccc(C)cc1OC (stereo not given)

stdout:
1: 25.9 µg/mL; 2: > 46.4 µg/mL; 3: 28.7 µg/mL; 4: 51.7 µg/mL; 5: > 51.2 µg/mL; 6: 36.3 µg/mL; 7: 30.6 µg/mL; 8: 35.1 µg/mL
